tested on: SNB-19 CNS; experiment: NCI-60 one-dose screen, 48 h; details: 10 µM unless noted
Compounds without any hit were thinned out: in the full panel of roughly 83,000, 20% have a hit. Calls of active or inactive are those of the source. The calls were made as follows: active = growth percent below 10; inactive = the rest.
Response enum: TRUE for active, FALSE for inactive

The examples below pair each entry with its known result.
O=C(CSc1nnc(-c2ccccc2)o1)Nc1ccc(C(=O)/C=C/c2ccccc2)cc1 = FALSE
COc1ccc(/C=C2/C(=O)Nc3cc(Cl)c(-c4csc(N)n4)cc32)cc1 = FALSE
CCCCn1c(-c2cccc(OC)c2)nc2cc(OC)c(OC)cc2c1=O = FALSE
CSc1nc(N)nc2c1ncn2C = FALSE
Cc1ccc2c(C3C(C#N)=C(N)Oc4cc5ccccc5cc43)cc(=O)oc2c1 (configuration not stated) = FALSE
COC(=O)/C=C/C(=O)c1cc(C)cc(C)c1O = FALSE

Identify the outcome logged in this assay for the compound shown: Nc1ncnc2c1ncn2C1OC(COC(c2ccccc2)(c2ccccc2)c2ccccc2)C(O)C1O (configuration not stated)
FALSE

Any idea what this test logged for CC(C)NCC(O)COc1ccc(CC(N)=O)cc1 (configuration not stated) ?
FALSE

Fill in: this test's call for CNC(=O)NN is ___
FALSE

For this compound, state the assay outcome: O=C(Nc1ccc(-n2ccc3c(NC(=O)c4ccccc4)nccc32)cc1)Nc1ccc(Cl)c(Cl)c1
TRUE

Hey, what did the test say about O=S(=O)(O)c1ccc(F)cc1 ?
FALSE

###

tested on: UACC-62 melanoma; assay: NCI-60 one-dose screen, 48 h; conditions: 10 µM unless noted
The panel holds about 83,000 compounds, 20% with a hit somewhere; the sample as a whole holds those more often. Activity calls are given as the source filed them. How the source made its calls: active means growth percent below 10; inactive means the rest.
Entry note: the call must match one of yes (1) = active, no (0) = inactive

COC(=O)c1oc2c(C(C)=O)c(OCCN3CCCCC3)ccc2c1C = no (0)
CC(NCCC(c1ccccc1)c1ccccc1)c1ccccc1 (centres undefined) = no (0)
Cc1cc(NCCN(C(C)C)C(C)C)nc(/N=C(\N)Nc2ccc(Cl)c(C(F)(F)F)c2)n1 = yes (1)
Cc1nc(-c2ccc(Cl)cc2)ccc1NC(=O)Nc1cccc(C(F)(F)F)c1 = no (0)

Please let me know the test result on file for OCCOCC(F)(F)F .
no (0)

What classification did C=C(C)[C@@H]1C/C=C(\COC(=O)[C@H](OC(C)=O)C(NC(=O)c2ccccc2)c2ccccc2)CC[C@H]2O[C@]2(C)CC/C=C(\C)CC1 (some centres undefined) end up with in this test?
no (0)

Test call, this compound: CN1CCN(CC(=O)N(C)c2ccc(N=C(c3ccccc3)c3c(O)[nH]c4ccc(C#N)cc34)cc2)CC1
no (0)

Could you check what this test reported for CC(C)CNCC(O)COc1ccc(C(C)(C)c2ccc(OCC(O)CNCC(C)C)cc2)cc1 (centres undefined) ?
yes (1)

Answer briefly: the call reported for O=S(=O)(CCN1CCOCC1)Nc1cncc(-c2ccc3ncnc(Nc4ccc(F)c(Cl)c4)c3c2)c1 in this assay.
no (0)

###

System: EKVX NSCLC
Assay: NCI-60 one-dose screen, 48 h (100 = growth as untreated, 0 = no growth, -100 = all killed)
Conditions: 10 µM unless noted
Method: Growth inhibition of the EKVX human Non-Small Cell Lung tumor cell line is measured as a screen for anti-cancer activity. Cells are grown in 96 well plates and exposed to the test compound for 48 hours. Compounds are tested at a single concentration, which is 10^-5 M for most compounds. The reported endpoint is percent growth (GI% or GIPRCNT), where numbers from 0 - 100% represent growth inhibition, and numbers from -100% - 0 represent cell death. […]
The panel holds about 83,000 compounds, 20% with a hit somewhere; the sample as a whole holds those more often.
Attribute measured: growth (%)
Reply numerically in %, unit not repeated.

O=[N+]([O-])c1cccc(C(c2ccccc2)c2ccccc2)c1 = 79.1

Give the measured growth of O=C(N/N=C1\SCC(=O)N1c1ccccc1)c1cc(-c2cc3ccccc3o2)nn1-c1ccccc1 .
96.7

Data request, read-out growth, for CC(C)NCC(O)COc1ccc(CC(N)=O)cc1 (stereo unspecified)
101

Name the reported growth value associated with the compound O=C(O)c1cc2ccccc2cc1Nc1ccccc1
97.6

May I ask what growth has been recorded for CCN(CC)CCNc1ccc([N+](=O)[O-])c2sc3cc(Cl)ccc3c(=O)c12 ?
78.9

Form field: reported growth of COc1ccc(SC2c3ccc(O)cc3Oc3nc(N)c(C#N)c(N)c32)cc1 (stereo unspecified)
79

###

test system: UO-31 renal; experiment: NCI-60 one-dose screen, 48 h (100 = growth as untreated, 0 = no growth, -100 = all killed); conditions: 10 µM unless noted
This is part of a sample that, as a whole, favours compounds with a hit. Of some 83,000 tested, about 20% had one in any assay.
Attribute measured: growth (%)
Express the result in % but write the number alone.

Previously resolved entries follow.
NC(CSC(c1ccccc1)(c1ccccc1)c1ccc(F)cc1)C(=O)O (centres undefined) = 25.3
COc1ccc(-c2c(NC(=O)Nc3ccc(Cl)c(C(F)(F)F)c3)cnn2-c2ccc(S(N)(=O)=O)cc2)cc1 = 50.9
CN(C)c1ncc(C#Cc2c(F)cccc2F)c2ccccc12 = 54.8
O=C(NNC(=O)c1ccc([N+](=O)[O-])cc1)c1ccc([N+](=O)[O-])cc1 = 95.4
COC(=O)c1oc2c(C(C)=O)c(OCCN3CCCCC3)ccc2c1C = 84.5
OC[C@@H](O)C(O[C@@H]1O[C@H](CO)[C@H](O)[C@H](O)[C@H]1O)[C@H](O)[C@@H](O)CO (some centres undefined) = 75.5
NS(=O)(=O)c1ccc(Nc2nc(O)c(/C=C3\C=Nc4ccccc43)s2)cc1 = 70.7
Cc1c(Cl)ccc2c(C(=O)Cl)cc(-c3ccccc3)nc12 = 90.1

Now consider the entry below.
Data request, read-out growth, for COc1ccc(C(=O)NC(=O)Nc2ccc3c(c2)NC(=O)/C3=C\c2[nH]c(C)c(C(=O)O)c2C)cc1
80.4

###

tested on: MDA-MB-231 breast; experiment: NCI-60 one-dose screen, 48 h (100 = growth as untreated, 0 = no growth, -100 = all killed); conditions: 10 µM unless noted
Compounds without any hit were thinned out: in the full panel of roughly 83,000, 20% have a hit.
We begin with a simple list: items and their reported growth.
Write the number in % without appending the unit.

These recorded examples may help you get a feel for the data.
COc1ccc(-c2nn(-c3ccc(NC(=O)c4cc(Cl)cc(Cl)c4)cc3)cc2-c2ccncc2)cc1Cl = 25.1
Oc1ccc(Cl)cc1Sc1cc(Cl)ccc1O = 96.4

Can you share its growth? I mean this compound: O=C(c1ccccc1)[C@H]1[C@@H]2CCCN2[C@]2(C(=O)Nc3ccc(F)cc32)[C@]12C(=O)Nc1ccccc12
75.5

Please look up its growth: CCCCCCCCCCCC(=O)OCCNC(=O)C[n+]1ccccc1
99.6

// lookup growth for O=S(=O)(O)c1ccc(F)cc1
112

Quick one: growth for COc1cc(/C=C/C(=O)c2c(C)[n+]([O-])c3ccccc3[n+]2[O-])ccc1O ?
81.5

Can you look up the measured growth of Cc1cc(O[C@@H]2O[C@@H](C)[C@H](O)[C@@H](O)[C@H]2O)c2c3c(c(O[C@@H]4O[C@@H](C)[C@H](O)[C@@H](O)[C@H]4O)cc2c1)C(=O)c1c(O)cccc1C3=O for me?
86.3

Which growth is reported for this compound? COc1ccc(C[C@H](N)C(=O)N[C@@H]2[C@@H](CO)OC(n3cnc4c(N(C)C)ncnc43)[C@@H]2O)cc1 (some centres undefined)
-10.1

If you can, please state the reported growth value of CC(NCCC(c1ccccc1)c1ccccc1)c1ccccc1 (centres undefined) .
83.8

###

tested on: T-47D breast; assay: NCI-60 one-dose screen, 48 h (100 = growth as untreated, 0 = no growth, -100 = all killed); details: 10 µM unless noted
About 83,000 compounds went through this panel and 20% of them were active in at least one assay; those are over-represented in the sample as a whole. The source made the active and inactive calls. How the source made its calls: active means growth percent below 10; inactive means the rest.
Attribute: growth

O=C(O)c1ccccc1C(=O)c1ccc(I)cc1 = 83.1% (inactive)
C#C[C@@]1(O)[C@@H](CO)O[C@@H](n2cc(Br)c3c(Cl)ccnc32)[C@@H]1O = -17.8% (active)
O=C(O)c1cccc2oc(-c3ccccc3O)nc12 = 52.2% (inactive)

Which measured growth value corresponds to COC(=O)Nc1nc2ccc(Sc3ccccc3)cc2[nH]1 ?
60.8% (inactive)

What growth value was documented for this molecule, COc1ccc(-n2c(-c3ccc(NC(=O)CCCl)cc3)nnc2-c2cc(OC)c(OC)c(OC)c2)cc1 ?
25.3% (inactive)

I am curious: what growth value has been reported for COc1ccc(C(=O)NC(=O)Nc2ccc3c(c2)NC(=O)/C3=C\c2[nH]c(C)c(C(=O)O)c2C)c(F)c1 ?
58.5% (inactive)

Which growth is listed for CC/C(=C(\CC)c1ccc(OCCN(CC)CC)cc1)c1ccc(OCCN(CC)CC)cc1 ?
12.3% (inactive)

What does the record list as growth for CC(C)(C)C(=O)Nc1nc2c(s1)CCc1ccn(S(=O)(=O)c3ccccc3)c1-2 ?
66.6% (inactive)

So what does the record say about growth for CCc1c(C)c2cc(-n3c(-c4ccc(OC)cc4)csc3=N)c(O)c(C)c2oc1=O ?
-0.0975% (active)

Please give the measured growth for this molecule: COc1ccc(OCC(O)CN2CCN(c3ccc(Cl)cc3)CC2)cc1 (stereo not given)
78% (inactive)
